System name: recombinant CETP (Homo sapiens, UniProt P11597)
Construct: purchased Roar, New York, NY, USA RB-RPAK
Sequence (P11597 18-493): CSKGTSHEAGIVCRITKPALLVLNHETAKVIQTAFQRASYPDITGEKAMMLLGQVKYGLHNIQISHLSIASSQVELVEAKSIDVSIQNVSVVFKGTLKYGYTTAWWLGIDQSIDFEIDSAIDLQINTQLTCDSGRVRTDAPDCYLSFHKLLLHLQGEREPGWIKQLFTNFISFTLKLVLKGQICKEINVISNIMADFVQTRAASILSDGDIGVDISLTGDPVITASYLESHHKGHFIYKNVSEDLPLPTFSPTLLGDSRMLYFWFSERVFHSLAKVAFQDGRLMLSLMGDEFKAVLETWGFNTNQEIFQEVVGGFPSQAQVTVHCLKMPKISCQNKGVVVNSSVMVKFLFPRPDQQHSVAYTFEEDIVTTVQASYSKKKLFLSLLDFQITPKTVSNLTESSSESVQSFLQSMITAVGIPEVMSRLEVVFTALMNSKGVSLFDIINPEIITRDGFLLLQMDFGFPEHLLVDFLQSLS
Test method notes: In vitro CETP inhibitory assay (BODIPY-CE fluorescence assay, CETP RP Activity Assay Kit)
Format: biochemical
Experimental setup: CETP inhibition, eight-point titration, each concentration tested three times
pIC50: −log10 of the molar value.
Quantity: pIC50

Consider the reported pIC50 for these molecules:
Molecule: Cn1nccc1-c1cccc(N(Cc2ccc(F)cc2)Cc2nc(-c3ccc([N+](=O)[O-])cc3)cs2)c1
pIC50: 4.61
//
Molecule: O=[N+]([O-])c1ccc(-c2csc(CN(Cc3ccc(F)cc3)c3cccc(OC(F)(F)F)c3)n2)cc1
pIC50: 4.50
//
Molecule: COc1ccc(N(Cc2ccc(F)cc2)Cc2nc(-c3ccc(Br)cc3)cs2)cc1OC
pIC50: 5.05

[A] COc1ccc(N(Cc2ccc(F)cc2)Cc2nc(-c3ccccc3)cs2)cc1OC
[B] Cc1cc(CN(Cc2ccc(F)cc2)c2cccc(Oc3ccccc3)c2)nn1-c1ccccc1 [Compound 17c]
Of A and B , which one carries the higher reported pIC50? Indicate your choice by writing its label. A
